What IC50 was measured for each of the following?
Tested on: 885512-296-R-J2-PDC complex spheroid viability;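 further: spheroids exposed to the compounds for one week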
method: Anticancer human tumor 885512-296-R-J2-PDC patient-derived breast carcinoma cell line growth inhibition [GQUAD]
reported-conditions: curve of first compound; second compound 0.0316 µM

COc1ncnc(C2CC2)c1-c1ncc2cnn(Cc3ccc(-c4nc(C(F)(F)F)cn4C(C)C)cc3)c2n1 + Cc1cnc(CNC(=O)c2c(=O)c3ccc(N4CCCN(C)CC4)nc3n3c2sc2ccccc23)cn1    > 10000 nM

Can you give me IC50 for all of these, one by one?
1. CCc1c2c(nc3ccc(O)cc13)-c1cc3c(c(=O)n1C2)COC(=O)[C@]3(O)CC + Cc1[nH]c2ccc(F)cc2c1-c1nc2c3cccnc3c3ncccc3c2[nH]1
2. Nc1ccn(C2OC(CO)C(O)C2(F)F)c(=O)n1 (stereo not drawn) + CN(C)c1ccc(Nc2c3ccc(NC(=O)CCN4CCCC4)cc3nc3cc(NC(=O)CCN4CCCC4)ccc23)cc1

Ans:
1. < 0.999 nM
2. < 31.6 nM
